# Test name: Hypersensitivity factor value is IC50 of (AA8) to that of UV4 where UV4 is a mutant AA8 line lacking the ability to perform incision repair
# Format: functional
// Ratio lookup, one value per entry

stdin: For the compound shown here, "C[n+]1ccc(Nc2ccc(Cc3ccc(N(CCCl)CCCl)cc3)cc2)c2ccccc21" , give the reported Ratio.
stdout: 20

stdin: # query: Ratio of entry "O=C(O)CCCc1ccc(N(CCCl)CCCl)cc1"
stdout: 58

stdin: // Ratio lookup, key: "C[n+]1ccc(Nc2ccc(C(=O)Nc3ccc(N(CCCl)CCCl)cc3)cc2)c2ccccc21"
stdout: 17

stdin: Given the compound "CCN(CCCl)c1ccc(Oc2ccc(Nc3ccnc4ccccc34)cc2)cc1" , what is its reported Ratio?
stdout: 11.3

stdin: What measured Ratio goes with "C[n+]1ccc(Nc2ccc(Oc3ccc(N(CCCl)CCCl)cc3)cc2)c2ccccc21" ?
stdout: 23

stdin: Field request: Ratio | item: "C[n+]1ccc(Nc2ccc(C(=O)c3ccc(N(CCCl)CCCl)cc3)cc2)c2ccccc21"
stdout: 6.4

====

# Organism: Bos taurus
# Test name: Spectrophotometry for binding to calf thymus DNA in 0.01 M HEPES buffer (pH 7.0) at 25 degree C
# Type: ADME
# Condition: cattle
Readout name: Log K

Here is how some compounds turned out for Log K.
INSERT INTO results (molecule, readout_name, recorded_result) VALUES
  ('C[n+]1ccc(Nc2ccc(Oc3ccc(N(CCCl)CCCl)cc3)cc2)c2ccccc21', 'Log K', '6.45 M-1'),
  ('C[n+]1ccc(Nc2ccc(Cc3ccc(N(CCCl)CCCl)cc3)cc2)c2ccccc21', 'Log K', '6.58 M-1'),
  ('C[n+]1ccc(Nc2ccc(C(=O)c3ccc(N(CCCl)CCCl)cc3)cc2)c2ccccc21', 'Log K', '6.61 M-1');

# ---- query compound ----
stdin: Need Log K of "C[n+]1ccc(Nc2ccc(C(=O)Nc3ccc(N(CCCl)CCCl)cc3)cc2)c2ccccc21" , thanks.
stdout: 6.48 M-1
